Experiment: logP determination by HPLC on reverse-phase column (C 18), acidic range pH 2.3
Assay type: physicochemical
Conditions: HPLC, C 18 reverse-phase, 43° C.
experimental-readout: logP (pH 2.3)

molecule	logP (pH 2.3)
C=C(C)CO/N=C(/C)c1ccc(-c2ccccc2NC(=O)c2sc(C)nc2C(F)(F)F)cc1	3.49
C#CCO/N=C(\C)c1ccc(-c2ccccc2NC(=O)c2cn(C)nc2C)cc1	2.75
C#CCO/N=C(\C)c1ccc(-c2ccccc2NC(=O)c2ccccc2Br)cc1	3.74
C#CCO/N=C(\C)c1ccc(-c2ccccc2NC(=O)c2cn(C)cc2C(F)(F)F)cc1	3.6
C=CC(C)O/N=C(/C)c1ccc(-c2ccccc2NC(=O)c2cn(C)nc2C(F)(F)F)cc1 (centres unmarked)	4.15
C#CCO/N=C(\C)c1ccc(-c2ccccc2NC(=O)c2sc(C)nc2C(F)(F)F)cc1	3.72
C=C(C)CO/N=C(/C)c1ccc(-c2ccccc2NC(=O)c2ccoc2C)cc1	4.51
C#CCO/N=C(\C)c1ccc(-c2ccccc2NC(=O)c2ccccc2Cl)cc1	3.73

====

Assay: logP determination by HPLC on reverse-phase column (C 18), acidic range pH 2.3
Type: physicochemical
Details: HPLC, C 18 reverse-phase, 43° C.
experimental-readout: logP (pH 2.3)

compound	logP (pH 2.3)
C=CC(C)O/N=C(/C)c1ccc(-c2ccccc2NC(=O)c2cn(C)cc2C(F)(F)F)cc1 (stereo not drawn) [Compound 57]	4.41
C=C(C)CO/N=C(/C)c1ccc(-c2ccccc2NC(=O)c2cccnc2Cl)cc1 [Compound 60]	3.95
C#CCO/N=C(\C)c1ccc(-c2ccccc2NC(=O)c2c(C)nn(C)c2F)cc1 [Compound 71]	3.27
C#CCO/N=C(\C)c1ccc(-c2ccccc2NC(=O)c2cccnc2Cl)cc1 [Compound 68]	3.16
C#CCO/N=C/c1ccc(-c2ccccc2NC(=O)c2sc(C)nc2C(F)(F)F)cc1 [Compound 83]	3.48
C=CC(C)O/N=C(/C)c1ccc(-c2ccccc2NC(=O)c2ccccc2C(F)(F)F)cc1 (stereo not drawn) [Compound 59]	4.65
C#CCO/N=C(\C)c1ccc(-c2ccccc2NC(=O)c2ccoc2C)cc1 [Compound 77]	3.59
C#CCO/N=C(\C)c1ccc(-c2ccccc2NC(=O)C2=C(C)OCCS2)cc1 [Compound 74]	3.81
C=CCO/N=C(/C)c1ccc(-c2ccccc2NC(=O)C2=C(C)OCCS2)cc1 [Compound 39]	4.38
CC#CCO/N=C(/C)c1ccc(-c2ccccc2NC(=O)c2ccoc2C)cc1 [Compound 50]	3.95
C=C(C)CO/N=C(/C)c1ccc(-c2ccccc2NC(=O)c2ccccc2C(F)(F)F)cc1 [Compound 58]	4.64
C=CC(C)O/N=C(/C)c1ccc(-c2ccccc2NC(=O)c2cccnc2Cl)cc1 (stereo not drawn) [Compound 42]	2.89
CC#CCO/N=C(/C)c1ccc(-c2ccccc2NC(=O)c2cccnc2Cl)cc1 [Compound 41]	3.48
C=CC(C)O/N=C(/C)c1ccc(-c2ccccc2NC(=O)c2ccoc2C)cc1 (stereo not drawn) [Compound 47]	4.52
CC#CCO/N=C(/C)c1ccc(-c2ccccc2NC(=O)c2c(C)nn(C)c2F)cc1 [Compound 37]	3.63
C/C(=N/OCC=C(Cl)Cl)c1ccc(-c2ccccc2NC(=O)c2sc(C)nc2C(F)(F)F)cc1 [Compound 62]	3.81
C=C(C)CO/N=C(/C)c1ccc(-c2ccccc2NC(=O)c2cn(C)nc2C)cc1 [Compound 52]	3.52
C=CC(C)O/N=C(/C)c1ccc(-c2ccccc2NC(=O)c2cn(C)nc2C)cc1 (stereo not drawn) [Compound 53]	3.53
